The origin of these recorded values is ChEMBL document CHEMBL5030525.

# Test system: NCI-H1975
# PROTOCOL: Antiproliferative activity against human NCI-H1975 cells assessed as inhibition of cell growth measured after 72 hrs by MTT assay
# Type: functional, cell-based
# TEST SETTINGS: NCI-H1975, 72 h
PARAMETER: pIC50
Note on pIC50: it is the negative log10 of concentration, concentration in mol/L.

Reference set (3 entries):
MOLECULE SMILES | pIC50
FC(F)(F)c1ccc(CSc2nc(Sc3ncccn3)cc(C(F)(F)F)n2)cc1 | 4.85
FC(F)(F)c1ccc(CSc2nc(Nc3ccc(Cl)cc3Cl)cc(C(F)(F)F)n2)cc1 | 4.47
COc1ccc(Nc2cc(C(F)(F)F)nc(SCc3ccc(C(F)(F)F)cc3)n2)cc1 | 4.86

We now examine a further compound.
Input line: Entry C=CC(=O)Nc1cccc(Nc2cc(C(F)(F)F)nc(SCc3ccccc3C(F)(F)F)n2)c1 : reported pIC50 = ?
Output line: 5.18

* * *

Item-by-item account of selectivity ratio
# PROTOCOL: Selectivity index, ratio of IC50 for cytotoxicity against human GES1 cells to IC50 for antiproliferative activity against human NCI-H1975 cells
# Format: toxicity, cell-based
# TEST SETTINGS: GES1 cells versus NCI-H1975 cells, read-out: Ratio IC50
Could you respond with only the numeric value?

Reference set (2 entries):
MOLECULE SMILES | selectivity ratio
O=c1[nH]cc(F)c(=O)[nH]1 | 2.06
C=CC(=O)Nc1cccc(Nc2cc(C(F)(F)F)nc(SCc3ccc(C(F)(F)F)cc3)n2)c1 | 6.6

We now examine a further molecule.
Input line: Entry FC(F)(F)c1ccc(CSc2nc(Sc3nncs3)cc(C(F)(F)F)n2)cc1 : reported selectivity ratio = ?
Output line: 16.5

* * *

Item-by-item account of IC50
# System: NCI-H1975
# PROTOCOL: Antiproliferative activity against human NCI-H1975 cells assessed as inhibition of cell growth measured after 72 hrs by MTT assay
# Format: functional, cell-based
# TEST SETTINGS: NCI-H1975, 72 h
The figure you give is taken to be in µM; do not add the unit.

Input line: Hello, I am looking for reported IC50 with NCI-H1975 for C=CC(=O)Nc1cccc(Nc2cc(C(F)(F)F)nc(SCc3ccc(F)cc3)n2)c1 . Could you help?
Output line: 10.1

Input line: Hello, I am looking for reported IC50 with NCI-H1975 for FC(F)(F)c1ccc(CSc2nc(Sc3nnnn3-c3ccccc3)cc(C(F)(F)F)n2)cc1 . Could you help?
Output line: 24.3

Input line: Hello, I am looking for reported IC50 with NCI-H1975 for C=CC(=O)Nc1cccc(Nc2cc(C(F)(F)F)nc(SCc3cccc(C(F)(F)F)c3)n2)c1 . Could you help?
Output line: 5.07

Input line: Hello, I am looking for reported IC50 with NCI-H1975 for C=CC(=O)Nc1cccc(Nc2cc(C(F)(F)F)nc(SCc3cccc(Br)c3)n2)c1 . Could you help?
Output line: 7.44

Input line: Hello, I am looking for reported IC50 with NCI-H1975 for FC(F)(F)c1ccc(CSc2nc(Sc3nncs3)cc(C(F)(F)F)n2)cc1 . Could you help?
Output line: 2.27

* * *

# Test system: NCI-H1975
# PROTOCOL: Antiproliferative activity against human NCI-H1975 cells assessed as inhibition of cell growth measured after 72 hrs by MTT assay
# Assay type: functional, cell-based
# TEST SETTINGS: NCI-H1975, 72 h
# strict inequality: IC50 < 10 µM yields TRUE, everything else yields FALSE

Would you please look over these solved cases?
COMPOUND | DISCRETE LABEL
O=c1[nH]cc(F)c(=O)[nH]1 [FLUOROURACIL] | TRUE
C=CC(=O)Nc1cccc(Nc2cc(C(F)(F)F)nc(SCc3cnc(Cl)s3)n2)c1 | FALSE
FC(F)(F)c1ccc(CSc2nc(N3CCSCC3)cc(C(F)(F)F)n2)cc1 | FALSE
FC(F)(F)c1ccc(CSc2nc(N3CCN(c4ccccc4)CC3)cc(C(F)(F)F)n2)cc1 | FALSE

Input line: A record lists FC(F)(F)c1ccc(CSc2nc(Sc3ccccn3)cc(C(F)(F)F)n2)cc1 . Is its IC50 below 10 µM?
Output line: FALSE

Input line: A record lists C=CC(=O)Nc1cccc(Nc2cc(C(F)(F)F)nc(SCc3ccccc3Br)n2)c1 . Is its IC50 below 10 µM?
Output line: TRUE

Input line: A record lists C=CC(=O)Nc1cccc(Nc2cc(C(F)(F)F)nc(SCc3cccc(Cl)c3)n2)c1 . Is its IC50 below 10 µM?
Output line: FALSE

Input line: A record lists C=CC(=O)Nc1cccc(Nc2cc(C(F)(F)F)nc(SCc3ccccc3Cl)n2)c1 . Is its IC50 below 10 µM?
Output line: FALSE

Input line: A record lists C=CC(=O)Nc1cccc(Nc2cc(C(F)(F)F)nc(SCc3ccc(Cl)cc3)n2)c1 . Is its IC50 below 10 µM?
Output line: FALSE
